Cited source for all entries: paper PMC9482650

Molecular target: T1, LIN7C, Q9NUP9
T1 sequence (Q9NUP9 88-185, limits assumed, looked up): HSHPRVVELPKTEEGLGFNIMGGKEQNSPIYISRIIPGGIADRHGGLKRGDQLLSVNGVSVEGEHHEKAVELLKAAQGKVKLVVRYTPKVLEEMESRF
Assay: holdup assay
Set-up: key: below the threshold = too weak to quantify, mostly under pKd 3.1 to 4
Conditions: plain residues with an end cap or a label only (N-terminal biotin on a linker: ado-ado)
observedProperty: pKd

NSTHNLKDYV [CLDN20, P56880] | below the threshold
DYSNLRETDI [ADRA1D, P25100] | 4.05
VYEVPVETKF [SLC26A3, P40879] | 4.01
FLVTEFNVML [DFNB31, Q9P202] | below the threshold
SQDPKKPSRV [CBY2, Q8NA61] | below the threshold
DLLGGGSDSI [TNRC6B, Q9UPQ9] | 3.48
RGKNRRQSIF [CDK18, Q07002] | 3.5
ATKDKKITTV [EXOC4, Q96A65] | below the threshold
DAAHHDESNC [FMNL3, Q8IVF7] | below the threshold
GSQSQVETEA [FKBP4, Q02790] | below the threshold
QRYPGNQTTC [CCL24, O00175] | below the threshold
EFKQTSSFLV [JAM1, Q9Y624] | below the threshold
KIEDVEITLV [FCHSD2, O94868] | 4.11
NISARRFTLC [FAM167B, Q9BTA0] | below the threshold
RDYTQSSSSL [GRM5, P41594] | below the threshold
EAVTVESTSL [SLC22A11, Q9NSA0] | below the threshold
